Experiment: IC50 ratio evaluated as the IC50 values of testis to that of liver.
Format: functional
Design: reference not given here
Exercise: for every item that follows, state its recorded IC50 ratio.
Give the figure by itself; no unit, no explanation.

For Cn1nnnc1C(/C=C/[C@@H](O)C[C@@H](O)CC(=O)[O-])=C(c1ccc(F)cc1)c1ccc(F)cc1.[Na+] the compound record lists IC50 ratio as 5.9

For Cc1cc(-c2ccc(F)cc2)c(/C=C/[C@@H](O)C[C@@H](O)CC(=O)[O-])c(C(C)C)[n+]1[O-].[Na+] the compound record lists IC50 ratio as 39.9

For CC(C)c1c(Br)c(Br)c(-c2ccc(F)cc2)n1CC[C@@H](O)C[C@@H](O)CC(=O)[O-].[Na+] the compound record lists IC50 ratio as 0.009

For CC[C@H](C)C(=O)O[C@H]1C[C@H](O)C=C2C=C[C@H](C)[C@H](CC[C@@H](O)C[C@@H](O)CC(=O)[O-])[C@H]21.[Na+] [PRAVASTATIN SODIUM] the compound record lists IC50 ratio as 2.3

For Cc1cc(C)c(OC[C@@H](O)C[C@@H](O)CC(=O)[O-])c(C2CCCCCC2)c1.[Na+] the compound record lists IC50 ratio as 0.01

For CC(C)c1nc(-c2ccccc2)cc(-c2ccc(F)cc2)c1/C=C/[C@@H](O)C[C@@H](O)CC(=O)[O-].[Na+] the compound record lists IC50 ratio as 0.002

For CC(C)c1nc2ccc(Cl)cc2c(-c2ccc(F)cc2)c1/C=C/[C@@H](O)C[C@@H](O)CC(=O)[O-].[Na+] the compound record lists IC50 ratio as 0.03
